Ref: the supplement of paper PMC9170038

Tested on: MS2 coat protein
Assay: apparent KD of MS2 coat protein; designed switch direction (-1 OFF switch, 1 ON switch): -1; higher = weaker reporter binding
Conditions: input ligand: none
Would you kindly list apparent KD of MS2 coat protein for each of these sequences?
Please don't drop the unit; write it after the number.

Study these solved cases before continuing.
UGCAGACGAGGAUAUAAACGAUAUAACAUGAGGAUCACCCAUGUACGAUCGAAUGAUCGUUUAGAAGGCGUCUGCA [E5/10-A1] (Eterna round: R97, puzzle: Exclusion 5) : 15.7 nM
CCCUCACAUGAGGAUCACCCAUGUUAGGAUAUGGGAGGUACCUGCGUGAGCGCACCACCCAGAAGGGACCAGGC [Eternabot (L2) Solution 4] (Eterna round: R97, puzzle: Exclusion 1) : 159 nM
UAGAGAGAUAAGGAUAUCUAUUAAAUUGUGCGUAGAGAAGGUAUCACAUGAGGAUCACCCAUGUGGUCUAAUAA [Eternabot (L1) Solution 88] (Eterna round: R97, puzzle: Exclusion 6) : 24.1 nM
UGCGAAGAGUGAGGAUAUGUGCGACAAAGUUGCACAGAAGGCACAUGAGGAUCACCCAUGUAAGCUAGGUCGAAAGACCUAGCG [Omei Exc(NG)1 Av5] (Eterna round: R96, puzzle: Exclusion NG 1) : 43.4 nM

Turning now to a further sequence:
// GGCCUUCCGCGAGCUUUUUACAUGAGGAUCACCCAUGUGGUUUUUAGUCUUAUGCCCGGGCCCGUGUGGGCCCGGGC [-33.7, -54.7, A 12%] (Eterna round: R97, puzzle: Sensor, turn-off variant 1) : apparent KD of MS2 coat protein value = 29.2 nM
